assay system: T1, IFN-αF (human, UniProt P01568 24-189)
T1 construct: Recombinant, HEK293; also called IFN-α21
T1 chain: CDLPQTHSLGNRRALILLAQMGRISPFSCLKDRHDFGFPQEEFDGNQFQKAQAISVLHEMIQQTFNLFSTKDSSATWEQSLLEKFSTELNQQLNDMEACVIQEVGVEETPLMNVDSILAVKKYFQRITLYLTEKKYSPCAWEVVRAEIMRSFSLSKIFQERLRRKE
experiment summary: ProteOn SPR, cell supernatant;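 also: each binding measurement used just a single antigen concentration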
property name: Kd
Write the quantity with the unit trailing the number.

The cases that follow already have their Kd on record.
| binder | Kd |
| --- | --- |
| IFWM3293 (antibody, IgG1, V domains shown, mAb; IgG1/kappa said of the parent and of selected mAbs; also called IFWB3028) VH: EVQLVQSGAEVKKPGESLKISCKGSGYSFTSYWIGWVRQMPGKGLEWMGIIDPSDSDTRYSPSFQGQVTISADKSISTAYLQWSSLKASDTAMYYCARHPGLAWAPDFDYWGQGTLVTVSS VL: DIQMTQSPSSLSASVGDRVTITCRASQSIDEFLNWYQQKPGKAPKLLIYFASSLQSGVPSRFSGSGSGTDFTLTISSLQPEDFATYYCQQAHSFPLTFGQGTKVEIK | 0.017 nM |
| IFWM3401 (antibody, IgG1, V domains shown, mAb; IgG1/kappa said of the parent and of selected mAbs; also called IFWB3136) VH: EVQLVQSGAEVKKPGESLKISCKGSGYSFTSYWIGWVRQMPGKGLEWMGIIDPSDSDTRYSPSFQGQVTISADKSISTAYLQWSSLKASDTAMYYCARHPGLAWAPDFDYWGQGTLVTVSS VL: DIQMTQSPSSLSASVGDRVTITCRASQSITNHLNWYQQKPGKAPKLLIYFASSLQSGVPSRFSGSGSGTDFTLTISSLQPEDFATYYCQQAHNFPLTFGQGTKVEIK | 0.028 nM |
| IFWM3420 (antibody, IgG1, V domains shown, mAb; IgG1/kappa said of the parent and of selected mAbs; also called IFWB3155) VH: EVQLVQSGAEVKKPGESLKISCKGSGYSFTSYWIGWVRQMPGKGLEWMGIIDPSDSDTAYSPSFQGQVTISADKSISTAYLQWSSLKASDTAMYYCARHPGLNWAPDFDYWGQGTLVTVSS VL: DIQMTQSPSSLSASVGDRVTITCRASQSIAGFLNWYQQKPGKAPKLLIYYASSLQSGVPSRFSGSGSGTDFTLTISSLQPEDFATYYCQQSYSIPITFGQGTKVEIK | 0.118 nM |

Next up:
The recorded Kd for entry IFWM3409 (antibody, IgG1, V domains shown, mAb; IgG1/kappa said of the parent and of selected mAbs; also called IFWB3144) VH: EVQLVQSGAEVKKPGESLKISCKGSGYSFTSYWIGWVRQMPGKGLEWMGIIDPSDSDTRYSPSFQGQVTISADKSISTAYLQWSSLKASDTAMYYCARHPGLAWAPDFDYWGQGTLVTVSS VL: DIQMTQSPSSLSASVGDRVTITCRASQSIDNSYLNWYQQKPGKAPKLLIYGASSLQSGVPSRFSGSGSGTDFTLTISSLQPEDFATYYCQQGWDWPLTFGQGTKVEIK equals 0.009 nM
